target_entity: UBIAD1 D240N (Homo sapiens, UniProt Q9Y5Z9, D240N)
assay_procedure: Cell-based UBIAD1 functional assay
recorded_endpoint: EC50 (nM)
Write the number in nM without appending the unit.

Ask | GET /values?readout=EC50&system=UBIAD1 D240N (Homo sapiens, UniProt Q9Y5Z9, D240N)&item= "CC1=CC(=O)c2ccccc2C1=O"
Reply | 11.2

---

target_entity: UBIAD1 D236E (Homo sapiens, UniProt Q9Y5Z9, D236E)
assay_procedure: Cell-based UBIAD1 functional assay
recorded_endpoint: pEC50
Scale explanation: pEC50 corresponds to minus log10 of a concentration expressed in moles per litre.

Ask | # input molecule: "CC1=CC(=O)c2ccccc2C1=O" ; wanted: its pEC50
Reply | 7.65

---

target_entity: UBIAD1 G177R (Homo sapiens, UniProt Q9Y5Z9, G177R)
assay_procedure: Cell-based UBIAD1 functional assay
recorded_endpoint: pEC50
pEC50 is defined as minus the log10 of a concentration measured in mol/L.

Ask | Endpoint output: pEC50 of "CC1=CC(=O)c2ccccc2C1=O" . Value?
Reply | 8.52

---

target_entity: UBIAD1 N102S (Homo sapiens, UniProt Q9Y5Z9, N102S)
assay_procedure: Cell-based UBIAD1 functional assay
recorded_endpoint: EC50 (nM)
State the answer as a number, implicitly in nM.

Ask | Could you share which EC50 value was measured for "CC1=CC(=O)c2ccccc2C1=O" ?
Reply | 3.9

---

target_entity: UBIAD1 D236A (Homo sapiens, UniProt Q9Y5Z9, D236A)
assay_procedure: Cell-based UBIAD1 functional assay
recorded_endpoint: pEC50
Value format note: pEC50 is -log10 of concentration (mol/L); just state the number.

Ask | What value of pEC50 has been recorded for this entry: "CC1=CC(=O)c2ccccc2C1=O"
Reply | 7.05

---

target_entity: UBIAD1 G177E (Homo sapiens, UniProt Q9Y5Z9, G177E)
Sequence (Q9Y5Z9 1-338 G177E): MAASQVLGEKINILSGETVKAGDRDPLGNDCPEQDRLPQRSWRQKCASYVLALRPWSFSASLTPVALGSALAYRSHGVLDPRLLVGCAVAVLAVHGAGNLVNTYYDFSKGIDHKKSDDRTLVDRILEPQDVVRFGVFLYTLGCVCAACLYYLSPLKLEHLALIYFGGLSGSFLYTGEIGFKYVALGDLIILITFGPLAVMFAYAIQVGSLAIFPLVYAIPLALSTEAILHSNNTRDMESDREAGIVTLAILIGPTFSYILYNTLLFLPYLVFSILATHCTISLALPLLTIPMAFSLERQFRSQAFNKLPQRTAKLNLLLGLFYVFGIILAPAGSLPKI
assay_procedure: Cell-based UBIAD1 functional assay
recorded_endpoint: EC50
Please answer using the number first and the unit second.

Ask | Name the reported EC50 value associated with the compound "CC1=CC(=O)c2ccccc2C1=O"
Reply | 3.7 nM

---

target_entity: UBIAD1 D112G (Homo sapiens, UniProt Q9Y5Z9, D112G)
assay_procedure: Cell-based UBIAD1 functional assay
recorded_endpoint: EC50 (nM)
Value expressed in nM; do not type the unit.

Ask | Item: CC1=CC(=O)c2ccccc2C1=O [vitamin K3, menadione] Test system: UBIAD1 D112G (Homo sapiens, UniProt Q9Y5Z9, D112G) Read-out: EC50 Value: ?
Reply | 5.1

---

target_entity: UBIAD1 K181A (Homo sapiens, UniProt Q9Y5Z9, K181A)
assay_procedure: Cell-based UBIAD1 functional assay
recorded_endpoint: pEC50
pEC50 here: minus log base 10 of the concentration, concentration in moles per litre.

Ask | # input compound: "CC1=CC(=O)c2ccccc2C1=O" ; wanted: its pEC50
Reply | 7.92
